From: the FLAb antibody collection (doi:10.7554/elife.23156)

B1: scFv; the commonest letter at each place (parent)
chain 1: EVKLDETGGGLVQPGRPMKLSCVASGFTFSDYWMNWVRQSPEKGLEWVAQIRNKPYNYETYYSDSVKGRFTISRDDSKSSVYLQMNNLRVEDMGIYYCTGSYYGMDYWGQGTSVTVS
chain 2: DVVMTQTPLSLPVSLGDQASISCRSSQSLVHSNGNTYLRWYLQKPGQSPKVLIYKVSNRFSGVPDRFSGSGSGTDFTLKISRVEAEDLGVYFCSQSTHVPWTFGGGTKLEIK

# Variants of: B1
# method: Kd (Tite-Seq)
# conditionParameters: with fluorescein; format: scFv 4-4-20, heavy + light
pKd: −log10 of the molar value.
Parameter pKd: see the listing below.

{"columns": ["mutationCode", "recordedResult"],
 "data": [
  ["chain 1 N35C W36F", "≤ 5.00"],
  ["chain 1 S101A Y103E", 8.02],
  ["chain 1 S30H M34F", 8.82],
  ["chain 1 Y103L Y107D", "≤ 5.00"],
  ["chain 1 S101A Y102P", "≤ 5.00"],
  ["chain 1 G100T M105G", "≤ 5.00"]
]}

Now let's try a different one.
Request: Would you mind telling me what pKd value was observed for chain 1 D31Y ?
Response: 8.48
